src = patent US9399626B2

Molecular target: MPO (purified from human polynuclear leukocytes) (Homo sapiens)
Construct: purified from human polynuclear leukocytes; purchased Calbiochem/EMD Biosciences; host or cells: human polynuclear leukocytes (natural source)
Assay: MPO Amplex Red Activity Assay
Format: biochemical
Details: Table 1, 2 μM H2O2, pH 7.4
Counter-ions that a name gives are not always drawn.
MPO kinact/Ki for assorted molecules

[
  {
    "molecule": "N=C(N)NCCn1c(-c2ccccc2-n2nccn2)cc(=O)[nH]c1=S [Example 130, hydrochloride]",
    "study system": "MPO (purified from human polynuclear leukocytes) (Homo sapiens)",
    "MPO kinact/Ki": "4830 1/s per M"
  },
  {
    "molecule": "COc1ccc(-c2cc(=O)[nH]c(=S)n2CCN)c2ccccc12 [Example 185, hydrochloride]",
    "study system": "MPO (purified from human polynuclear leukocytes) (Homo sapiens)",
    "MPO kinact/Ki": "9740 1/s per M"
  },
  {
    "molecule": "COCCn1c(-c2cccc3c2OCC3)cc(=O)[nH]c1=S",
    "study system": "MPO (purified from human polynuclear leukocytes) (Homo sapiens)",
    "MPO kinact/Ki": "5000 1/s per M"
  },
  {
    "molecule": "COc1ccc(Cl)cc1-c1cc(=O)[nH]c(=S)n1CCN [Example 63, hydrochloride]",
    "study system": "MPO (purified from human polynuclear leukocytes) (Homo sapiens)",
    "MPO kinact/Ki": "12200 1/s per M"
  },
  {
    "molecule": "NCCCn1c(-c2n[nH]c3ccccc23)cc(=O)[nH]c1=S [Example 32, formate]",
    "study system": "MPO (purified from human polynuclear leukocytes) (Homo sapiens)",
    "MPO kinact/Ki": "2120 1/s per M"
  },
  {
    "molecule": "COc1ccc(-c2cc(=O)[nH]c(=S)n2CCC(=O)O)c(OC)c1",
    "study system": "MPO (purified from human polynuclear leukocytes) (Homo sapiens)",
    "MPO kinact/Ki": "458 1/s per M"
  },
  {
    "molecule": "COc1ccc(-c2cc(=O)[nH]c(=S)n2CCCCO)c(OC)c1",
    "study system": "MPO (purified from human polynuclear leukocytes) (Homo sapiens)",
    "MPO kinact/Ki": "5640 1/s per M"
  },
  {
    "molecule": "COCCn1c(-c2ccccc2SC)cc(=O)[nH]c1=S",
    "study system": "MPO (purified from human polynuclear leukocytes) (Homo sapiens)",
    "MPO kinact/Ki": "7740 1/s per M"
  },
  {
    "molecule": "COc1ccc(-c2cc(=O)[nH]c(=S)n2CCOCC(=O)O)c(OC)c1",
    "study system": "MPO (purified from human polynuclear leukocytes) (Homo sapiens)",
    "MPO kinact/Ki": "246 1/s per M"
  }
]

---

Target: MPO (purified from human polynuclear leukocytes) (Homo sapiens, UniProt P05164)
Construct: purified from human polynuclear leukocytes; purchased Calbiochem/EMD Biosciences; host or cells: human polynuclear leukocytes (natural source)
Sequence (P05164 279-745 limits assumed): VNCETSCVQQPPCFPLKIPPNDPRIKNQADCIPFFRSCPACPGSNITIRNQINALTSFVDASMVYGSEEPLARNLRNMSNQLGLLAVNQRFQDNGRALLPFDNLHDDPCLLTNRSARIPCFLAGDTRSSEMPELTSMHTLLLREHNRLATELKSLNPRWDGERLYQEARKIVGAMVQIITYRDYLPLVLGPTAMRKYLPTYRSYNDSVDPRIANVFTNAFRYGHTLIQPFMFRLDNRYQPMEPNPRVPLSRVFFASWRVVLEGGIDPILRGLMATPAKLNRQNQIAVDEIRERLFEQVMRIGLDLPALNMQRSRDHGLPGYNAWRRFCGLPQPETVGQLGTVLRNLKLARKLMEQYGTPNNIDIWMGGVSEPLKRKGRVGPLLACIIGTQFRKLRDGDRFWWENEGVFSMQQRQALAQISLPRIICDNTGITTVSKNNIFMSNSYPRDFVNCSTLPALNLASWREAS
Sequence (P05164 165-273 limits assumed): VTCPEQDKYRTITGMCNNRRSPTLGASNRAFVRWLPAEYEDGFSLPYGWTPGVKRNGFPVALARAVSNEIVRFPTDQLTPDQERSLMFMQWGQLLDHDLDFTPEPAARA
Assay: MPO Amplex Red Activity Assay
Type: biochemical
Details: Table 1, 2 μM H2O2, pH 7.4
Structures can show the parent of a compound that is named as a salt.
measured quantity: MPO kinact/Ki

[
  {
    "compound": "COCCn1c(-c2ccccc2OC(C)C)cc(=O)[nH]c1=S",
    "obs value": "4370 1/s per M"
  },
  {
    "compound": "COc1ccc(-c2cc(=O)[nH]c(=S)n2Cc2ccn(C(N)=S)n2)c(OC)c1",
    "obs value": "2280 1/s per M"
  },
  {
    "compound": "COc1ccc(F)cc1-c1cc(=O)[nH]c(=S)n1CCNC(=O)CN [Example 127, hydrochloride]",
    "obs value": "5810 1/s per M"
  },
  {
    "compound": "NC(=O)Cn1c(-c2cccc3[nH]ccc23)cc(=O)[nH]c1=S",
    "obs value": "14900 1/s per M"
  },
  {
    "compound": "COCCn1c(-c2cc3ccccc3s2)cc(=O)[nH]c1=S",
    "obs value": "10200 1/s per M"
  },
  {
    "compound": "COc1ccc(-c2cc(=O)[nH]c(=S)n2CCNC(=N)NC#N)c(OC)c1",
    "obs value": "1920 1/s per M"
  },
  {
    "compound": "COc1ccc(-c2cc(=O)[nH]c(=S)n2CC2CCCN2)c(OC)c1 (stereo not drawn) [Example 211, hydrochloride]",
    "obs value": "6090 1/s per M"
  },
  {
    "compound": "COc1ccc(-c2cc(=O)[nH]c(=S)n2CC(O)CO)c(OC)c1 (stereo not drawn)",
    "obs value": "4350 1/s per M"
  },
  {
    "compound": "CCOc1ccccc1-c1cc(=O)[nH]c(=S)n1CCOC(C)C",
    "obs value": "1210 1/s per M"
  }
]

---

Target: MPO (purified from human polynuclear leukocytes) (Homo sapiens, UniProt P05164)
Construct: purified from human polynuclear leukocytes; purchased Calbiochem/EMD Biosciences; host or cells: human polynuclear leukocytes (natural source)
Experiment: MPO Amplex Red Activity Assay
Format: biochemical
Details: Table 1A, 2 μM H2O2, pH 7.4
MPO kinact/Ki for assorted compounds
measured quantity: MPO kinact/Ki

[
  {
    "compound": "COc1cccc(OC)c1-c1cc(=O)[nH]c(=S)n1CC(N)=O [Example 386]",
    "obs value": "4960 1/s per M"
  },
  {
    "compound": "COc1ccc(-c2cc(=O)[nH]c(=S)n2CC(N)=O)c(OCCO)c1 [Example 420]",
    "obs value": "5210 1/s per M"
  },
  {
    "compound": "COc1ccc(F)cc1-c1cc(=O)[nH]c(=S)n1CCCN(C)C(=N)N [Example 375]",
    "obs value": "11300 1/s per M"
  },
  {
    "compound": "COc1ccc(-c2cc(=O)[nH]c(=S)n2CC(=O)N[C@H]2C[C@@H](N)C2)c(OC)c1 [Example 430]",
    "obs value": "9440 1/s per M"
  },
  {
    "compound": "COc1ccc(-c2cc(=O)[nH]c(=S)n2CCO)cc1OC [Example 355]",
    "obs value": "1540 1/s per M"
  },
  {
    "compound": "COc1ccc(-c2cc(=O)[nH]c(=S)n2CC(=O)N2CC(N)C2)c(OC)c1 [Example 431]",
    "obs value": "3440 1/s per M"
  },
  {
    "compound": "COc1ccc(F)cc1-c1cc(=O)[nH]c(=S)n1CCONC(=N)N [Example 419]",
    "obs value": "1200 1/s per M"
  },
  {
    "compound": "NC(=O)Cn1c(-c2cc(Cl)ccc2O)cc(=O)[nH]c1=S [Example 377]",
    "obs value": "8770 1/s per M"
  },
  {
    "compound": "NCCNC(=O)Cn1c(-c2ccc(F)cc2OCCO)cc(=O)[nH]c1=S [Example 415]",
    "obs value": "3910 1/s per M"
  },
  {
    "compound": "COc1ccc(-c2cc(=O)[nH]c(=S)n2CC(N)=O)cc1 [Example 410]",
    "obs value": "3150 1/s per M"
  },
  {
    "compound": "CNCCN(C)C(=O)Cn1c(-c2ccc(OC)cc2OC)cc(=O)[nH]c1=S [Example 400]",
    "obs value": "2650 1/s per M"
  },
  {
    "compound": "COc1ccc(-c2cc(=O)[nH]c(=S)n2CCNC(=O)NC(=N)N)c(OC)c1 [Example 452]",
    "obs value": "11600 1/s per M"
  },
  {
    "compound": "COc1cc(OCC(N)=O)ccc1-c1cc(=O)[nH]c(=S)n1CCN [Example 423]",
    "obs value": "3290 1/s per M"
  },
  {
    "compound": "NC(=O)Cn1c(-c2cccc3ncccc23)cc(=O)[nH]c1=S [Example 367]",
    "obs value": "1340 1/s per M"
  },
  {
    "compound": "COc1ccc(-c2cc(=O)[nH]c(=S)n2CC(=O)N[C@@H]2CCNC2)c(OC)c1 [Example 388]",
    "obs value": "8690 1/s per M"
  },
  {
    "compound": "NCCn1c(-c2cc(Cl)ccc2OCCO)cc(=O)[nH]c1=S [Example 427]",
    "obs value": "5360 1/s per M"
  },
  {
    "compound": "NCCn1c(-c2ccccc2OC(F)(F)F)cc(=O)[nH]c1=S [Example 382]",
    "obs value": "2310 1/s per M"
  },
  {
    "compound": "NC(=O)Cn1c(-c2ccc(F)cc2OCCO)cc(=O)[nH]c1=S [Example 414]",
    "obs value": "1680 1/s per M"
  }
]
